- TARGET_DESC: T1, human Nectin-4 on cells (human, UniProt Q96NY8 32-510)
- T1 sequence (looked up): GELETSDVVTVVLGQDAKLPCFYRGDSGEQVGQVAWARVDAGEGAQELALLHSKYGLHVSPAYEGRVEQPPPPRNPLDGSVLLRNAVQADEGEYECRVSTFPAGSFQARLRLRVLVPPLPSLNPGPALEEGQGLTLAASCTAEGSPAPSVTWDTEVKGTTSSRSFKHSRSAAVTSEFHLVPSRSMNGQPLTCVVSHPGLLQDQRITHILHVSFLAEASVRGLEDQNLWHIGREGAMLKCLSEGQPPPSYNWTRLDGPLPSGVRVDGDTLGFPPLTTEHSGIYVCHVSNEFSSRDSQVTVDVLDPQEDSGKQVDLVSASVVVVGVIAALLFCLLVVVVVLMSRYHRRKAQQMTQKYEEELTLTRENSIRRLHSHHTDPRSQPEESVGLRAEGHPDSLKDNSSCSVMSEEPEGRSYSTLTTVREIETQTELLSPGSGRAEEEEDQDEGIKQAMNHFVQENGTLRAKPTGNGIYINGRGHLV
- ASSAY_NOTES: cell-based or functional assay
For each entry below, report its Ratio (pH 7.4/6.0) of cell killing EC50 value.
Form field (numeric): enter value without unit.

Query: Request the reported Ratio (pH 7.4/6.0) of cell killing EC50 associated with BAP-143-00-01 (antibody, V domains shown, Used as a conjugate with a linker payload (CAB ADC)) VH: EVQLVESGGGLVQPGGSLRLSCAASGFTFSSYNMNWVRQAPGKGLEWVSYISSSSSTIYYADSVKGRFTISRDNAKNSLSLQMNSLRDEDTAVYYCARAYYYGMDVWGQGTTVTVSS VL: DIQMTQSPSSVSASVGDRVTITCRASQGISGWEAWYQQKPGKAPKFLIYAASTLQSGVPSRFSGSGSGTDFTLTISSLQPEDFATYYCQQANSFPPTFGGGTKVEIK
Response: 2.1

Query: Param item = BAP-143-00-04 (antibody, V domains shown, Used as a conjugate with a linker payload (CAB ADC)) VH: EVQLVESGGGLVQPGGSLRLSCAASGFTFSSYNDNWVRQAPGKGLEWVSYISSSSSTIYYADSVKGRFTISRDNAKNSLSLQMNSLRDEDTAVYYCARAYYYGMDVWGQGTTVTVSS VL: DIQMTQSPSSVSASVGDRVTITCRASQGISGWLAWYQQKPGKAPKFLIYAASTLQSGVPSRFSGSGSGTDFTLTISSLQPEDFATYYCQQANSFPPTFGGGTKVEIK ; retrieve measured Ratio (pH 7.4/6.0) of cell killing EC50.
Response: 2.7

Query: Item under review: BAP-143-00-06 (antibody, V domains shown, Used as a conjugate with a linker payload (CAB ADC)) VH: EVQLVESGGGLVQPGGSLRLSCAASGFTFSSYNMNWVRQAPGKGLEWVSYISSSSSTIYYADSVKGRFTISRDNAKNSLSLQMNSLRDEDTAVYYCARAYYYGDDVWGQGTTVTVSS VL: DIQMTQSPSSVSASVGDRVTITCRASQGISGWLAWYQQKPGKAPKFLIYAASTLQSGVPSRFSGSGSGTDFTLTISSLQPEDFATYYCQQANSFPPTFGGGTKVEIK . Reported Ratio (pH 7.4/6.0) of cell killing EC50?
Response: 1.2
